I'd appreciate it if you could supply Kt (μM ±SEM) values for the items below.
# Target Or System: hASBT (Homo sapiens)
# Sequence (Q12908 1-348): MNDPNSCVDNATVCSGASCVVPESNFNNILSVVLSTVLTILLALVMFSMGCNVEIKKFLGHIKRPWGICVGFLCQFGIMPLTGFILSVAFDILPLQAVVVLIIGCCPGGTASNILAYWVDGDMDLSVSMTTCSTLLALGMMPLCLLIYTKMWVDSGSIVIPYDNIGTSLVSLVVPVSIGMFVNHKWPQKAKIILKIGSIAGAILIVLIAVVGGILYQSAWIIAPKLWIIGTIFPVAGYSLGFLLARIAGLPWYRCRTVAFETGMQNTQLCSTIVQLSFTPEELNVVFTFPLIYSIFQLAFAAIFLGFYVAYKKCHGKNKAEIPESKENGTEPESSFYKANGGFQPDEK
# Test Name: hASBT-mediated active uptake into hASBT-MDCK monolayers
# Type: cell-based
# Condition Parameters: Michaelis-Menten transport constant; gly-iBA 1–200 μM, 10 min, 37 °C

As a guide, the following entries are already answered.
- Substance Smiles: "C[C@H](CCC(=O)NCC(=O)O)[C@H]1CC[C@H]2[C@@H]3[C@H](O)C[C@@H]4C[C@@H](O)CC[C@]4(C)[C@H]3C[C@H](O)[C@]12C"
  Target Or System: "hASBT (Homo sapiens)"
  Kt (μM ±SEM): "163 (37) μM"
- Substance Smiles: "C[C@H](CCC(=O)NCC(=O)O)[C@H]1CC[C@H]2[C@@H]3[C@@H](O)C[C@@H]4C[C@@H](O)CC[C@]4(C)[C@H]3CC[C@]12C"
  Target Or System: "hASBT (Homo sapiens)"
  Kt (μM ±SEM): "75.3 (22.1) μM"
- Substance Smiles: "C[C@H](CCC(=O)NCC(=O)O)[C@H]1CC[C@H]2[C@@H]3CC[C@@H]4C[C@@H](O)CC[C@]4(C)[C@H]3C[C@H](O)[C@]12C"
  Target Or System: "hASBT (Homo sapiens)"
  Kt (μM ±SEM): "149 (75) ^ns μM"

# input I would be grateful if you could share the reported Kt (μM ±SEM) for C[C@H](CCC(=O)NCC(=O)O)[C@H]1CC[C@H]2[C@@H]3[C@H](O)C[C@@H]4C[C@@H](O)CC[C@]4(C)[C@H]3CC[C@]12C .
# output 59.5 ± 8.8 µM

====

# Target Or System: hASBT (Homo sapiens)
# Test Name: cis-inhibition of taurocholate
# Condition Parameters: read-out: Ki (μM ±SEM); glycine conjugates of iso-bile acids; TCA 2.5 μM, 10 min, 37 °C, pH 6.8; mean (SEM)
Rule for this label: true (1) means Ki is less than 8 µM; false (0) means Ki is at least 8 µM.

- Substance Smiles: "C[C@H](CCC(=O)NCC(=O)O)[C@H]1CC[C@H]2[C@@H]3CC[C@@H]4C[C@@H](O)CC[C@]4(C)[C@H]3CC[C@]12C"
  Target Or System: "hASBT (Homo sapiens)"
  Qualitative Label: "true (1)"
- Substance Smiles: "C[C@H](CCC(=O)NCC(=O)O)[C@H]1CC[C@H]2[C@@H]3[C@H](O)C[C@@H]4C[C@@H](O)CC[C@]4(C)[C@H]3C[C@H](O)[C@]12C"
  Target Or System: "hASBT (Homo sapiens)"
  Qualitative Label: "false (0)"
- Substance Smiles: "C[C@H](CCC(=O)NCC(=O)O)[C@H]1CC[C@H]2[C@@H]3[C@@H](O)C[C@@H]4C[C@@H](O)CC[C@]4(C)[C@H]3CC[C@]12C"
  Target Or System: "hASBT (Homo sapiens)"
  Qualitative Label: "true (1)"
- Substance Smiles: "C[C@H](CCC(=O)NCC(=O)O)[C@H]1CC[C@H]2[C@@H]3[C@H](O)C[C@@H]4C[C@@H](O)CC[C@]4(C)[C@H]3CC[C@]12C"
  Target Or System: "hASBT (Homo sapiens)"
  Qualitative Label: "true (1)"

Now, please, on to the next compound.
# input Ki under 8 µM? Item: C[C@H](CCC(=O)NCC(=O)O)[C@H]1CC[C@H]2[C@@H]3CC[C@@H]4C[C@@H](O)CC[C@]4(C)[C@H]3C[C@H](O)[C@]12C
# output false (0)

====

# Tested on: hASBT-MDCK monolayer
# Condition Parameters: passive permeability of gly-iBAs; sodium-free buffer
Measured Attribute: Pp (cm/s ± SEM x 10^6)

- Substance Smiles: "C[C@H](CCC(=O)NCC(=O)O)[C@H]1CC[C@H]2[C@@H]3[C@H](O)C[C@@H]4C[C@@H](O)CC[C@]4(C)[C@H]3CC[C@]12C"
  Target Or System: "hASBT-MDCK monolayer"
  Pp (cm/s ± SEM x 10^6): "0.058 (0.07) cm/s x 10^6"
- Substance Smiles: "C[C@H](CCC(=O)NCC(=O)O)[C@H]1CC[C@H]2[C@@H]3CC[C@@H]4C[C@@H](O)CC[C@]4(C)[C@H]3C[C@H](O)[C@]12C"
  Target Or System: "hASBT-MDCK monolayer"
  Pp (cm/s ± SEM x 10^6): "0.730 (0.020) cm/s x 10^6"
- Substance Smiles: "C[C@H](CCC(=O)NCC(=O)O)[C@H]1CC[C@H]2[C@@H]3CC[C@@H]4C[C@@H](O)CC[C@]4(C)[C@H]3CC[C@]12C"
  Target Or System: "hASBT-MDCK monolayer"
  Pp (cm/s ± SEM x 10^6): "16.6 (0.8) cm/s x 10^6"
- Substance Smiles: "C[C@H](CCC(=O)NCC(=O)O)[C@H]1CC[C@H]2[C@@H]3[C@H](O)C[C@@H]4C[C@@H](O)CC[C@]4(C)[C@H]3C[C@H](O)[C@]12C"
  Target Or System: "hASBT-MDCK monolayer"
  Pp (cm/s ± SEM x 10^6): "0.740 (0.120) cm/s x 10^6"

Could you now look at the following compound, please?
# input I would be grateful if you could share the reported Pp (cm/s ± SEM x 10^6) for C[C@H](CCC(=O)NCC(=O)O)[C@H]1CC[C@H]2[C@@H]3[C@@H](O)C[C@@H]4C[C@@H](O)CC[C@]4(C)[C@H]3CC[C@]12C .
# output 0.690 (0.090) cm/s x 10^6

====

# Target Or System: hASBT (Homo sapiens, UniProt Q12908)
# Test Name: hASBT-mediated active uptake into hASBT-MDCK monolayers
# Type: cell-based
# Condition Parameters: gly-iBAs; normalised to TCA Jmax
Marks after values point to notes of the source that are not given here.
I'd appreciate it if you could supply Relative Jmax (% TCA Jmax ±SEM) values for the items below.

- Substance Smiles: "C[C@H](CCC(=O)NCC(=O)O)[C@H]1CC[C@H]2[C@@H]3[C@@H](O)C[C@@H]4C[C@@H](O)CC[C@]4(C)[C@H]3CC[C@]12C"
  Measured Attribute: "Relative Jmax (% TCA Jmax ±SEM)"
  Meas Value: "14.0 (2.4) % TCA Jmax"

For every listed record, write down its Relative Jmax (% TCA Jmax ±SEM).
1. C[C@H](CCC(=O)NCC(=O)O)[C@H]1CC[C@H]2[C@@H]3[C@H](O)C[C@@H]4C[C@@H](O)CC[C@]4(C)[C@H]3CC[C@]12C
2. C[C@H](CCC(=O)NCC(=O)O)[C@H]1CC[C@H]2[C@@H]3[C@H](O)C[C@@H]4C[C@@H](O)CC[C@]4(C)[C@H]3C[C@H](O)[C@]12C
3. C[C@H](CCC(=O)NCC(=O)O)[C@H]1CC[C@H]2[C@@H]3CC[C@@H]4C[C@@H](O)CC[C@]4(C)[C@H]3C[C@H](O)[C@]12C

# output
1. 23.9 (2.3) % TCA Jmax
2. 61.2 (9.9) % TCA Jmax
3. 3.68 (1.14) ^e % TCA Jmax

====

I'd appreciate it if you could supply pKi values for the items below.
# Target Or System: hASBT (Homo sapiens, UniProt Q12908)
# Test Name: cis-inhibition of taurocholate
Answers are plain numbers, as −log10 of the molar value.

- Compound: "C[C@H](CCC(=O)O)[C@H]1CC[C@H]2[C@@H]3[C@@H](O)C[C@@H]4C[C@@H](O)CC[C@]4(C)[C@H]3CC[C@]12C [iUDCA, 3β, 7β-dihydroxy-5β-cholanic acid]"
  pKi: 4.61
- Compound: "C[C@H](CCC(=O)O)[C@H]1CC[C@H]2[C@@H]3CC[C@@H]4C[C@@H](O)CC[C@]4(C)[C@H]3CC[C@]12C [iLCA, 3β-hydroxy-5β-cholanic acid]"
  pKi: 5.27
- Compound: "C[C@H](CCC(=O)O)[C@H]1CC[C@H]2[C@@H]3CC[C@@H]4C[C@@H](O)CC[C@]4(C)[C@H]3C[C@H](O)[C@]12C [iDCA, 3β, 12α-dihydroxy-5β-cholanic acid]"
  pKi: 4.94

Could you now look at the following compound, please?
# input I would be grateful if you could share the reported pKi for C[C@H](CCC(=O)O)[C@H]1CC[C@H]2[C@@H]3[C@H](O)C[C@@H]4C[C@@H](O)CC[C@]4(C)[C@H]3CC[C@]12C [iCDCA, 3β, 7α-dihydroxy-5β-cholanic acid] .
# output 4.93

Measured values drawn from paper PMC4031276 for this set.
